molecular target: T1, Human coronavirus OC43 spike extracellular domain (human coronavirus OC43, UniProt P36334 14-1297); test: ELISA
T1 construct: extracellular domain
T1 sequence (P36334 14-1297): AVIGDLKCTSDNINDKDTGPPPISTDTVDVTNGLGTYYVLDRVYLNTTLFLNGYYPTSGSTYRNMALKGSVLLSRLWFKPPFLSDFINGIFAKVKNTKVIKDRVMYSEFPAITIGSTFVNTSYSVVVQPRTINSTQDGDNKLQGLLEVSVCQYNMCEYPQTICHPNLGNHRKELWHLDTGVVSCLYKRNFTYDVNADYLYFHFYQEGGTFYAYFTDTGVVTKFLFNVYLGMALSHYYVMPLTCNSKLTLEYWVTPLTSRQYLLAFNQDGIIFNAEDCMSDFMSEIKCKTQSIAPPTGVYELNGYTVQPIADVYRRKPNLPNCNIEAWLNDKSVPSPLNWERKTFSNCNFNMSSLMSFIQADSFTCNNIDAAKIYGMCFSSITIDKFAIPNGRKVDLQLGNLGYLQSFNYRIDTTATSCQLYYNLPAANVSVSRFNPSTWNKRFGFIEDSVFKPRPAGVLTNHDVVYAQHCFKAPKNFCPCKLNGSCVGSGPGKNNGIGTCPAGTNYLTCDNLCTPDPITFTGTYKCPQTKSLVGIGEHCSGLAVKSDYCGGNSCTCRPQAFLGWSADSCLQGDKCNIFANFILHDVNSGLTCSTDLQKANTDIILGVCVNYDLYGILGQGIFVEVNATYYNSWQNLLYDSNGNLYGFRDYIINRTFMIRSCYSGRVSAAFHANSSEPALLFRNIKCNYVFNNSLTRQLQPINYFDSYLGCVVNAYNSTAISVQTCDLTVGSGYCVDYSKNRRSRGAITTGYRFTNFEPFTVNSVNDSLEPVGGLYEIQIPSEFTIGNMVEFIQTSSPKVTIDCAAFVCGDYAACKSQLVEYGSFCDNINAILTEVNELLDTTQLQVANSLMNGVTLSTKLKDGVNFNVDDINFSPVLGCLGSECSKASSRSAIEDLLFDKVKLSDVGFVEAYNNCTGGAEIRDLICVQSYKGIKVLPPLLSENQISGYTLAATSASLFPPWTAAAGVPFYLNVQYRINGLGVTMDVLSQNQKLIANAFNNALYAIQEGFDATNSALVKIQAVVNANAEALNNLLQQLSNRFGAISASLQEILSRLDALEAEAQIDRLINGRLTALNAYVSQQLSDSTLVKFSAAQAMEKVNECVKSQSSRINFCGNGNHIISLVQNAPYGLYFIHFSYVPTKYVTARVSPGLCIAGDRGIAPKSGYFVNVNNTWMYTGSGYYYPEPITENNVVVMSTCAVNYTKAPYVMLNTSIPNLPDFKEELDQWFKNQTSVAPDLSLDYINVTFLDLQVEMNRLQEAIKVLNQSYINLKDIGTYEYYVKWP

| binder | binding result |
| --- | --- |
| FI 4A (antibody, V domains shown) VH: EVQLVESGGGLVKPGGSLRLSCAASGFTFSRFSMNWVRQAPGKGLEWVSSISSSGSYIYFADSVKGRFTISRDNAKNSLYLQMNSLRAEDTAIYYCATYLFGDSHTYWGQGTLVTVSS VL: QSVLTQPHSVSESPGKTVTISCTGSSGSIASNYVQWYQQRPGSAPTTVIYEDNQRPSGVPDRFSGSIDSSSNSASLTISGLKTEDEADYYCQSYDSSNLHWVFGGGTKLTVL | no binding |
| FJ 10B (antibody, V domains shown) VH: QVQLVQSGAEVKKPGESLRISCKGSGYSFTSYWISWVRQMPGKGLEWMGRIDPSDSYTNYSPSFQGHVTISADKSISTAYLQWSSLKASDTAMYYCARLDPRYGPDYYGMDVWGQGTTVTVSS VL: AIRMTQSPSSLSASVGDRVTITCRASQSISSYLNWYQQKPGKAPKLLIHAASSLQSGVPSRFSGSGSGTDFTLTMSSLQPEDFATYYCQQSYSTPLTFGGGTKVEIR | no binding |
| FN 12A (antibody, V domains shown) VH: QVQLVQSGAEVKKPGSSVKVSCKASGGTFSSYAISWVRQAPGQGLEWMGRIIPILGIANYAQKFQGRVTITADKSTSTAYMELSSLRSEDTAVYYCARSGCSSTSCPSNLYYYYYGMDVWGQGTTVTVSS VL: QSVLTQPPSVSAAPGQKVTISCSGSSSNIGNNYVSWYQQLPGTAPKLLIYDNNKRPSGIPDRFSGSKSGTSATLGITGLQTGDEADYYCGTWDSSLSALVFGGGTKLTVL | binds |
